assay: yeast display, Sf9 membrane polyspecificity reagent, FACS + sequencing; frameworks hold sequencing errors
property: polyreactivity (PSR sort gate)

query.sequence | polyreactivity (PSR sort gate)
QVKLVESGGGLVQAGGSLRLSCAASGRTFASNAMGWYRQAPGKERELVADISSSGGTTYYADSVKGRFTISRDNAKNTVYLQMNSLKPEDTAVYYCAAVSSQDDPVKAWDYEYWGQGTQVTVSS | low polyreactivity
QVQLVESGGGLVQAGGSLRLSCAASGFIFEDYAMGWYTQATGKERELVAAITWRGGRTYYADSVKGRFTISRDNAKNTVYLQMNSLKPEDTAVYYCRPQVYSYASRYGYWGQGTQVTVLS | low polyreactivity
QVQLVESGGGLVQAGGSLRLSCAASGSTFPVYAMGWYIQAPGKERELVAAISYSGTRTYYADSVKGRFTISRDNAKNTVYLQMNSLKPEDTAVYYCAADFEGYGQGYGYWGQGTQVTVSS | low polyreactivity
QVQLVESGGGLVQAGGSLRLSSAASGRIFYRNAMGWYRQAPGKERELVASITSGGRTNYADSVKGRFTFSRDNAKNTVYLHMNSLKPEDTAVYYCAAPPPYSVRTFRFYYWGQGTQVTVSA | high polyreactivity
QVQLVESGGGLVQAGGSLRLSCAASGSILNNYAMGWYRQAPGKERELVAAISSSGGTNYADSVKGRFKISRDNAKNTVYLQMNSLKPEDTAVYYCAKESLYQYDYWGQGTQVTVSS | low polyreactivity

Okay, here is my list. What is polyreactivity (PSR sort gate) for each of these?
1. QVQLVESGGGLVQAGGSLRVSCAASGIIFRYNAMGWSRQAPGKESELVAAITSGGITKYADSVKGRFTISRDNAKNTVYLQMNSLKPEDTAVYYCNAEYGFDRAGSRGEYWGQCTQVTVSS
2. QVHLVESGGGLVQAGGSLRLTCAASGSTFASNVMGWYRQAPGKERELVAAISRRGTRTNYADSVKGRFTISLDNAKNTVYLQMKSLKPEDTAVYYCNTASGTNVVYEFGYWGQGTQVTVSS

Output:
low polyreactivity
high polyreactivity

====

assay: yeast display, Sf9 membrane polyspecificity reagent, FACS + sequencing; frameworks hold sequencing errors
property: polyreactivity (PSR sort gate)

query.sequence | result.value
QVQLVESGGGLVQAGGSLRLSCAASGSIFGSYAMGWNRQAPGKDREFVAGIDQSGSSTYYADSVKGRFTISRDNAKNTVYLQMNSLKPEDTAVYYCAARHRYRTYKMYYWGQGTQVTVSS | high polyreactivity
QVQLVESGGGLVQAGGSLRLSCAASGRIFGYNVMGWYRQAPGKERELVAAISYSGGSTYYADSVKGRFTISRDNAKNTVYLQMNSLKPEDTAVYYCNAGYRGSSKYNYWGQGTQVTVSS | high polyreactivity
QVQLVESGGGLVQAGGSLRLSCAASGSIFWYYAMGWYRQAPGKERELVAAISRSGGSTYYADSVKGRFTISRDNAKNTVYLQMNSLKPEDTAVYYCAAGYSSLRRFGVYYWGQGTQVTVSS | high polyreactivity

====

test: yeast display, Sf9 membrane polyspecificity reagent, FACS + sequencing; frameworks hold sequencing errors
property: polyreactivity (PSR sort gate)

query.sequence | property | result.value
QVHLVESGGGLVQAGGSLRLSCAASGSIFNVNAMGWYRQAPGKERELVAAISSGGDTYYADSVKGRFTISRDNAKNTVYLQMNCLKPEDTAVYYCAKQSYTLYTLLYDYWGQGTQVTVSS | polyreactivity (PSR sort gate) | low polyreactivity
QVQLVESGGGLVQAGGSLRLSCAASGSIFRVYALGWSRQAPGKERELVAAISSSGGSTYYADSVKGRFTISRDNAKNTVYLQMNSLKPEDTAVYYCAAEYDGPYTWVDYYYHYGYWGQGTQVTVSS | polyreactivity (PSR sort gate) | low polyreactivity
QVQLVESGGGLVQAGGSLRLSCAASGRTFRYYAMGWYIQAPGKERELVATITGSGGSTYYADSVKGRFTISRDNAKNTVYLQMNSLKPEDTAVYYCNARKVRYPYRWYDYWGQGTQVTVSS | polyreactivity (PSR sort gate) | high polyreactivity
QVQLVESGGGFVQAGGSLRLSCAASGFTFKAYAMGLYRQAPGKERELVATINRSGTGTYYADSVKGRFTISRDYAKNTVYLLMNSLKPEDTAVYYCNKRSHHNYYTYDYWGQGTQVTVSS | polyreactivity (PSR sort gate) | high polyreactivity

Okay, here is my list. What is polyreactivity (PSR sort gate) for each of these?
1. QVQHVESGRGLVQAGGILRLSCAASGRIFRMNAMGWYRQATGKERELDAAITWIGGRTYYADSVKGRFTISRDNAKNTVYLQMNSLKPEDTAVYYCAAAYPLDFWFGFEYDYWGQGTQGTVSS
2. QVQLVESGGGLVQPRGSLRLSCAASGSILGHYAMGWYRQAPGKERELVAAISWRGGTTYYADSVKGRFTISRDNAKNTVYLQMNSLKPEDTAVYYCNADVWVYPYDYWGQGTQVTVSS
3. QVQLVESGGGLVQAGGSLRLSCAASGISYRWYAMGWYRQAPGKERELVAAISSGGSTTYADSVKGRFTISRDNAKNTVYLQMNSLKPEDTAVYYCAARYQWYSADYDYWGQGTQVTVSS

Output:
["high polyreactivity", "low polyreactivity", "high polyreactivity"]
